Attribution: patent US8518968B2

system: JEKO-1 cells; assay: cells; conditions: Homo sapiens, JeKo-1, 48 h, JEKO-1 cells, incubated 2 days, MTT, four parameter logistic fit
VALUE_TYPE: IC50 (µM)
Write the answer as a number in µM, unit excluded.

Consider the reported IC50 for these compounds:
Item under review: `O=C(N/N=C/C=C/c1ccc([N+](=O)[O-])o1)c1nc(O)c2ccccc2c1O` . Reported IC50?
9

Same lookup for `O=C(N/N=C/C=C/c1ccc([N+](=O)[O-])o1)c1ccc(O)cc1` , please.
7.5

Same lookup for `O=C(N/N=C/C=C/c1ccccc1)c1cc2ccccc2cc1O` , please.
10

Now take the following compound into account.
Item under review: `O=C(N/N=C/C=C/c1ccc([N+](=O)[O-])o1)c1cccc(O)c1` . Reported IC50?
8
